Where these numbers come from: ChEMBL document CHEMBL5365491

test system: CCRF-CEM; assay: Growth inhibition of human CCRF-CEM cells measured after 72 hrs by CCK8 assay; assay type: functional, cell-based

{"Input Smiles": "CCOC(=O)/C=C/C=C/C=C/C=C/c1cccn1C", "Target Or Test System": "CCRF-CEM", "IC50": "10 µM"}

----------
system: CCRF-CEM; test: Antitumor activity against human CCRF-CEM cells assessed as cell killing activity; type: functional, cell-based; details: read-out: pIC50 (converted)

{"Input Smiles": "CCOC(=O)/C(C)=C/C=C/C=C/C=C/c1[nH]ccc1Cl", "IC50, nM": 63.1}
{"Input Smiles": "CCOC(=O)/C=C/C=C/C=C/C=C/c1ccc[nH]1", "IC50, nM": 1260}
{"Input Smiles": "COc1cc(/C=C/C=C/C=C/C=C/c2[nH]ccc2Cl)oc(=O)c1", "IC50, nM": 501}
{"Input Smiles": "CCOC(=O)/C(C)=C/C=C/c1[nH]ccc1Cl", "IC50, nM": 7940}
